- test-summary: The drug is tested on Streptococcus anginosus strain: DSM20563 for biotransformation under anaerobic condition. The drug concentrations were measured over 6 timepoints collected between 0 and 12 hours of incubation by liquid-chromatography-coupled mass spectrometry (LC–MS)
- Assay type: ADME
- Design: dose 5 uM, timepoint 0, 1.5, 3, 6, 9, 12 hours
- cond: 5 µM

| compound | Bacterial Biotransformation |
| --- | --- |
| CC(C)NCC(O)COc1ccc(CC(N)=O)cc1 (stereo not given) [ATENOLOL] | Compound NOT metabolized |
| CCOc1nc2cccc(C(=O)O)c2n1Cc1ccc(-c2ccccc2-c2nnn[nH]2)cc1 | Compound NOT metabolized |
| CCC(C)(C)C(=O)O[C@H]1C[C@@H](C)C=C2C=C[C@H](C)[C@H](CC[C@@H]3C[C@@H](O)CC(=O)O3)[C@H]21 [SIMVASTATIN] | Compound NOT metabolized |
| C[C@]12CCC(=O)C=C1CC[C@@H]1[C@@H]2C(=O)C[C@@]2(C)[C@H]1CC[C@]2(O)C(=O)CO [CORTISONE] | Compound NOT metabolized |

Where do the numbers come from? From ChEMBL document CHEMBL5724806.
